Values were extracted from paper PMC5159559.

- TEST TARGET: T1, APRIN (PDS5B) (UniProt Q9NTI5 1-1447)
- T1 sequence: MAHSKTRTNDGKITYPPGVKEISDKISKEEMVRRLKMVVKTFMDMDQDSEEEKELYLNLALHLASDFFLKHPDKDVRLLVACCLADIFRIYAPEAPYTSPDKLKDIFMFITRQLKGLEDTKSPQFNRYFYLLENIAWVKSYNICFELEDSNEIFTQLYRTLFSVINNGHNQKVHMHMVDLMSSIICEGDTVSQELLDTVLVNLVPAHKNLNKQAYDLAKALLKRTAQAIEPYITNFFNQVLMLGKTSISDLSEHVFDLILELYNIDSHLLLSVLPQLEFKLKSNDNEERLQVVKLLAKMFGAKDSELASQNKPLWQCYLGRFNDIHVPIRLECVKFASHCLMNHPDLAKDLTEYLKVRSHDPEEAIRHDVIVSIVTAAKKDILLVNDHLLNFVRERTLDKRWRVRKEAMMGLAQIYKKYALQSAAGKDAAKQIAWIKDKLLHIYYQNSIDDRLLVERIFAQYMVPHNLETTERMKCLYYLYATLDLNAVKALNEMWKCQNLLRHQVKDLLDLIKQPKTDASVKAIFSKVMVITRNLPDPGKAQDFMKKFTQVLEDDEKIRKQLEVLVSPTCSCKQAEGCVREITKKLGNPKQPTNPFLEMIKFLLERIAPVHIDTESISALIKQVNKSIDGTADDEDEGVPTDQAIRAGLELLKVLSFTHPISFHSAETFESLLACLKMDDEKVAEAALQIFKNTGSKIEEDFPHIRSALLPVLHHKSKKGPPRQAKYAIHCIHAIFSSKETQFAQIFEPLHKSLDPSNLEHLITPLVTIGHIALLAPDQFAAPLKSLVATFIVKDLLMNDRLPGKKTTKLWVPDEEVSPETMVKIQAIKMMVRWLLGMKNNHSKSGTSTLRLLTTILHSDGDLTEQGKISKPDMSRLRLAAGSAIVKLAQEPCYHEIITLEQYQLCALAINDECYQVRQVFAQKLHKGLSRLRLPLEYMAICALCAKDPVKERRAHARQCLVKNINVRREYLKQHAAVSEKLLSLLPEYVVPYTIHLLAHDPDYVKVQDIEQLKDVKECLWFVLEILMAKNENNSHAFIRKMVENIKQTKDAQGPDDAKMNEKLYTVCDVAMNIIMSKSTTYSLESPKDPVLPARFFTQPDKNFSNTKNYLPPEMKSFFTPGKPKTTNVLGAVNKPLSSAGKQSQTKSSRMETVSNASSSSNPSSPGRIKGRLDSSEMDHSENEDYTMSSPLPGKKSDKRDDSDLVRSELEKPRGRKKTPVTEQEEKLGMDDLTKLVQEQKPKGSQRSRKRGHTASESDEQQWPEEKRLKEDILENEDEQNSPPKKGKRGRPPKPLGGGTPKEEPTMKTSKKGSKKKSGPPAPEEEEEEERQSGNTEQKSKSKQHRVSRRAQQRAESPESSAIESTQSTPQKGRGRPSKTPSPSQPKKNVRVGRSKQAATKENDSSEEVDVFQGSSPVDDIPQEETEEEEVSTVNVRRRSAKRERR
- EXPERIMENTAL PROTOCOL: EMSA
ENDPOINT LABEL: binding result

- ssDNA (JYM925) (ssDNA) DNA: GGGTGAACCTGCAGGTGGGCAAAGATGTCCTAGCAATGTAATCGTCAAGCTTTATGCCGT: binds
- Holliday junction (JYM925/926/927/928) (structured_DNA) DNA 1: GGGTGAACCTGCAGGTGGGCAAAGATGTCCTAGCAATGTAATCGTCAAGCTTTATGCCGT DNA 2: ACGCTGCCGAATTCTACCAGTGCCAGCGACGGACATCTTTGCCCACCTGCAGGTTCACCC DNA 3: ACGGCATAAAGCTTGACGATTACATTGCTACATGGAGCTGTCTAGAGGATCCGACTATCG DNA 4: CGATAGTCGGATCCTCTAGACAGCTCCATGGTCGCTGGCACTGGTAGAATTCGGCAGCGT: binds
- Splayed arms (JYM925/JYM926) (structured_DNA) DNA 1: GGGTGAACCTGCAGGTGGGCAAAGATGTCCTAGCAATGTAATCGTCAAGCTTTATGCCGT DNA 2: ACGCTGCCGAATTCTACCAGTGCCAGCGACGGACATCTTTGCCCACCTGCAGGTTCACCC: binds
